- protocolText: chemical genetic growth profiling, strain panel (AID 1159580);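 note: tested at 20 µM; growth read once vehicle control cultures reached saturation at 30 °C; lower values mean less growth of the strain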
- studyConditions: S. cerevisiae deletion strains, growth OD, locus YJL095W, strain BCK1 (second series)
In all, about 5,500 compounds went through this assay and about 2,000 (36%) were called active. About 18% were inconclusive and are not listed. Cut-off read from the data, not from the text of the source: active = normalized growth mostly below about 0.91 (no sharp cut-off); inconclusive = no clear call, values can overlap the other calls; inactive = mostly above about 0.92. This is one part of the list.
Respond using exactly one of the listed classes: true (active), false (inactive)

Problem: // return assay outcome for "CCCCC(=O)N(Cc1ccc(-c2ccccc2-c2nn[nH]n2)cc1)[C@H](C(=O)O)C(C)C"
Solution: false

Problem: // return assay outcome for "O=c1ccc2cc(O[C@@H]3O[C@H](CO)[C@@H](O)[C@H](O)[C@H]3O)c(O)cc2o1"
Solution: false

Problem: // return assay outcome for "CC(C)=CCOc1cc2oc(=O)ccc2cc1O"
Solution: false

Problem: // return assay outcome for "COc1c2occc2cc2ccc(=O)oc12"
Solution: false

Problem: // return assay outcome for "CN(C)c1nc(N(C)C)nc(N(C)C)n1"
Solution: false

Problem: // return assay outcome for "COc1cc2ccc(=O)oc2cc1O"
Solution: false

Problem: // return assay outcome for "FC(F)(F)COCC(F)(F)F"
Solution: false

Problem: // return assay outcome for "COc1cc2ccc(=O)oc2c(OC)c1OC"
Solution: false

Problem: // return assay outcome for "CC1(C)S[C@@H]2[C@H](NC(=O)COc3ccccc3)C(=O)N2[C@H]1C(=O)O"
Solution: false

Problem: // return assay outcome for "CCCc1nc(C(C)(C)O)c(C(=O)OCc2oc(=O)oc2C)n1Cc1ccc(-c2ccccc2-c2nn[nH]n2)cc1"
Solution: false

Problem: // return assay outcome for "O=C1c2ccccc2-c2cccc3cccc1c23"
Solution: true
